Molecular target: T1, human Klotho β (human, UniProt Q86Z14 1-1044)
T1 sequence (looked up): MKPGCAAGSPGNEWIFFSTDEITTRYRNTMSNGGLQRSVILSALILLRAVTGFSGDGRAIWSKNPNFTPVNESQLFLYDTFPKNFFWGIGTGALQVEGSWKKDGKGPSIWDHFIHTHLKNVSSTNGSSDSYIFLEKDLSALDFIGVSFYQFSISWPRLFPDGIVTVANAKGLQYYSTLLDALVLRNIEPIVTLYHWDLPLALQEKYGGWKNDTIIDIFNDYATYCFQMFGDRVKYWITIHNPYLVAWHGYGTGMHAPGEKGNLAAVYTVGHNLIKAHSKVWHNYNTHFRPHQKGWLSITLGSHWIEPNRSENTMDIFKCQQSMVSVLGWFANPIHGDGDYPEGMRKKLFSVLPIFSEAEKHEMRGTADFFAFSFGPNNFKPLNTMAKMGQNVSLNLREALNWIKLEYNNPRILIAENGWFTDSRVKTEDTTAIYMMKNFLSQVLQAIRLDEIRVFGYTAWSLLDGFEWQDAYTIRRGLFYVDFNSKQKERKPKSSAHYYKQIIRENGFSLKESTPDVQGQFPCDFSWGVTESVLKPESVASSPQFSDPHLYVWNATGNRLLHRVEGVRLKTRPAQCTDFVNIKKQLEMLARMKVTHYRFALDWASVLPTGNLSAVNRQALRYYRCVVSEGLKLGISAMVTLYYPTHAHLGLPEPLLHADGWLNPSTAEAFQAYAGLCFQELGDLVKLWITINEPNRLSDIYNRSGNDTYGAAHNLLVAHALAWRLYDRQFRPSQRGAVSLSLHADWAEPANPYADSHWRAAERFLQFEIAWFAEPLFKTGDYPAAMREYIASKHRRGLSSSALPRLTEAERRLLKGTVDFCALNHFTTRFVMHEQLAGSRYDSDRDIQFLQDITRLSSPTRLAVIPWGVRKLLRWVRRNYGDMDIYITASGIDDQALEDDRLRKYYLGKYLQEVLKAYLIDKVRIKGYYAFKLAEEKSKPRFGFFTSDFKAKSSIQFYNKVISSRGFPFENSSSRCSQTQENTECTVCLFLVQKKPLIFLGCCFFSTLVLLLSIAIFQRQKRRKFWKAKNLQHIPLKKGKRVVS
Experiment: cell-based or functional assay
No end group written: not given here.
measured_property: IC-50 of antagonism of FGF21 (pErk1/2, 293 HEK hKLB cells) (µM)
Write down the numeric answer in µM and omit the unit.

[in] Write down IC-50 of antagonism of FGF21 (pErk1/2, 293 HEK hKLB cells) measured for item PPDVGSSDPLAMVGPSQGRSPSYAS [FGF21 25mer A11]
[out] 0.15

[in] Write down IC-50 of antagonism of FGF21 (pErk1/2, 293 HEK hKLB cells) measured for item PPDVGSSDPLSMVGPSQARSPSYAS [FGF21 25mer A18]
[out] 0.15

[in] Write down IC-50 of antagonism of FGF21 (pErk1/2, 293 HEK hKLB cells) measured for item PPDVGSSDPLSMVAPSQGRSPSYAS [FGF21 25mer A14]
[out] 0.13

[in] Write down IC-50 of antagonism of FGF21 (pErk1/2, 293 HEK hKLB cells) measured for item PADVGSSDPLSMVGPSQGRSPSYAS [FGF21 25mer A2]
[out] 0.62

[in] Write down IC-50 of antagonism of FGF21 (pErk1/2, 293 HEK hKLB cells) measured for item PPDVGSSDPLSMVGPSQGRSPSYAS-NH2 [FGF21 157-181]
[out] 0.16

[in] Write down IC-50 of antagonism of FGF21 (pErk1/2, 293 HEK hKLB cells) measured for item PLETDSMDPFGLVTGLEAVRSPSFEA [FGF19 169-194 K194A]
[out] 0.005

[in] Write down IC-50 of antagonism of FGF21 (pErk1/2, 293 HEK hKLB cells) measured for item PPDVGSADPLSMVGPSQGRSPSYAS [FGF21 25mer A7]
[out] 0.36
